src = paper PMC5540273

- Test system: JAK1(JH1domain-catalytic)
- test settings: concentration: 1 μM, replicates: in singlicate; n = 1;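 note: KINOMEscan kinase panel screen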
Listed molecules paired with reported %Inh
API: value field is a number in %; no unit string.

Please review the entries below; each comes with its answer.
In plain terms, CNc1nc(-c2ccc3c(N)n[nH]c3c2)cc(N2C[C@@H](C(=O)Nc3ccccc3)CC[C@H]2C)n1 has a documented %Inh of 0

In plain terms, COc1cccc(CNC(=O)NC2CCN(c3ccnc(Nc4ccc(F)cc4)n3)C2)c1 (stereo not drawn) has a documented %Inh of 5

In plain terms, COc1cc2ncnc(Nc3cccc(Br)c3)c2cc1OC.Cl has a documented %Inh of 3

In plain terms, COc1ccc(CSc2nnc(-c3ccc4ncsc4c3)o2)cc1C(F)(F)F has a documented %Inh of 25

In plain terms, Cc1ccccc1-c1cc(-c2c[nH]nc2-c2ccccn2)ccn1 has a documented %Inh of 4

In plain terms, CC[C@@H]1CO[C@H](C(=O)Nc2ccccc2)CN1c1cc(-c2ccc3c(N)n[nH]c3c2)nc(NC)n1 has a documented %Inh of 11

In plain terms, Cc1cnc(N)c(/C=C/c2cncc(C(=O)NCCc3ccc(Cl)cc3Cl)c2)c1.Cl has a documented %Inh of 0

In plain terms, Nc1cccc(-c2ccc3c(N)n[nH]c3c2)n1 has a documented %Inh of 14

Proceed to the following item.
In plain terms, Cc1ccc(NC(=O)Nc2ccccc2F)cc1-c1ccc(C(=O)Nc2ccncc2)cc1 has a documented %Inh of 12

----------
Listed compounds paired with reported %Inh
- System: DCAMKL2
- Construct: gene DCLK2
- test settings: concentration: 1 μM, replicates: in singlicate; n = 1
API: value field is a number in %; no unit string.

Please review the entries below; each comes with its answer.
In plain terms, O=C(Nc1n[nH]c2nc(-c3cccs3)c(Br)cc12)C1CCCC1 [SB-743341] has a documented %Inh of 7

In plain terms, Cc1nccc(-c2c(-c3ccc(F)cc3)ncn2CCCN2CCOCC2)n1.Cl [SB-282975] has a documented %Inh of 2

In plain terms, O=c1cc(N2CCOCC2)nc2n(Cc3cccc(Cl)c3Cl)c3ccccc3n12 [GSK2299009] has a documented %Inh of 7

In plain terms, CNC(=O)c1ccc(C)c(-n2c(C)cc(OCc3ccc(F)cc3F)c(Br)c2=O)c1 has a documented %Inh of 0

Proceed to the following item.
In plain terms, Nc1ncnc2occ(-c3ccc4c(c3)CCN4C(=O)Cc3cc(F)ccc3F)c12 [GSK2645446] has a documented %Inh of 0

----------
Listed compounds paired with reported %Inh
- Tested on: YSK4
- Construct: gene MAP3K19
- test settings: concentration: 1 μM, replicates: in singlicate; n = 1
API: value field is a number in %; no unit string.

In plain terms, O=C(Nc1n[nH]c2cc(-c3ccsc3)ccc12)C1CC1 has a documented %Inh of 94.7

In plain terms, Nc1ncnc2occ(-c3ccc4c(c3)CCN4C(=O)Cc3cc(F)ccc3F)c12 has a documented %Inh of 66

In plain terms, Nc1cccc(-c2ccc3c(N)n[nH]c3c2)n1 has a documented %Inh of 83

In plain terms, COC(=O)C(NC(=O)NC1CCN(c2ccnc(Nc3ccc(F)cc3)n2)C1)c1ccccc1 (stereo not drawn) has a documented %Inh of 32

In plain terms, Fc1ccc(-c2nc[nH]c2-c2ccncc2)cc1 has a documented %Inh of 22

In plain terms, COc1cc2ncnc(Nc3cccc(Br)c3)c2cc1OC.Cl has a documented %Inh of 63

In plain terms, CNc1nc(-c2ccc3c(N)n[nH]c3c2)cc(N2C[C@@H](C(=O)Nc3ccccc3)CC[C@H]2C)n1 has a documented %Inh of 17

In plain terms, CS(=O)(=O)CCNCc1nc(-c2ccc3ncnc(Nc4ccc(OCc5ccccc5)c(Cl)c4)c3c2)cs1.Cl has a documented %Inh of 30

---
In plain terms, CNC(=O)c1ccc(C)c(-n2c(C)cc(OCc3ccc(F)cc3F)c(Br)c2=O)c1 has a documented %Inh of 0

----------
- System: NDR1
- Construct: gene STK38
- test settings: concentration: 1 μM, replicates: in singlicate; n = 1
Under this convention, true denotes %Inh strictly below 10% and false denotes %Inh at or above 10%.

## Task Strictly below 10%: is that where %Inh of COc1cc2ncnc(Nc3cccc(Br)c3)c2cc1OC.Cl sits?
## Result false

## Task Strictly below 10%: is that where %Inh of O=C(Nc1n[nH]c2nc(-c3ccco3)c(Br)cc12)C1CCN(Cc2ccccc2)C1.O=C(O)[C@H](O)[C@@H](O)C(=O)O (stereo not drawn) sits?
## Result true

## Task Strictly below 10%: is that where %Inh of COc1ccc2cc(-c3nc(-c4ccccc4C(C)C)[nH]c3-c3ccncc3)ccc2c1 sits?
## Result false

---
## Task Strictly below 10%: is that where %Inh of COc1cccc(NC(=O)Nc2ccc(C)c(-c3ccc(C(=O)Nc4ccncc4)cc3)c2)c1 sits?
## Result false

## Task Strictly below 10%: is that where %Inh of O=C(Nc1n[nH]c2nc(-c3cccs3)c(Br)cc12)C1CCCC1 sits?
## Result false

## Task Strictly below 10%: is that where %Inh of CNc1cc(-c2ccc3c(N)n[nH]c3c2)nc(N)n1 sits?
## Result false

## Task Strictly below 10%: is that where %Inh of Cc1ccc(NC(=O)Nc2ccc(Cl)cc2)cc1-c1ccc(C(=O)Nc2ccncc2)cc1 sits?
## Result false

## Task Strictly below 10%: is that where %Inh of Cc1ccccc1Cn1ccn2c(=O)cc(N3CCOCC3)nc12 sits?
## Result false

## Task Strictly below 10%: is that where %Inh of Fc1ccc(-c2nn3cccc(F)c3c2-c2ccncc2)cc1 sits?
## Result true

----------
- Test system: DCAMKL1
- Construct: gene DCLK1
- test settings: concentration: 1 μM, replicates: in singlicate; n = 1
property label: %Inh (%)
API: value field is a number in %; no unit string.

In plain terms, COc1nccc(-c2c(-c3ccc(F)cc3)ncn2CCCN2CCOCC2)n1 has a documented %Inh of 35

In plain terms, CNCc1ccc2nc(NC(=O)c3ccc(C(C)(C)C)cc3)cn2c1 has a documented %Inh of 15

In plain terms, Cc1cnc(N)c(/C=C/c2cncc(C(=O)NCCc3ccc(Cl)cc3Cl)c2)c1.Cl has a documented %Inh of 4

In plain terms, Cc1cccc2c(-c3ccncn3)c(-c3ccc(F)cc3)nn12 has a documented %Inh of 0

In plain terms, O=C(Nc1n[nH]c2nc(-c3cccs3)c(Br)cc12)C1CCCC1 has a documented %Inh of 0

In plain terms, Cn1cncc1C(=O)NC1CCN(c2ccnc(Nc3ccc(F)cc3)n2)C1 (stereo not drawn) has a documented %Inh of 0

In plain terms, COc1ccc(Nc2nccc(NCCNC(=O)Nc3cc(C)ccc3C)n2)cc1 has a documented %Inh of 0

In plain terms, Cl.Cl.Cl.N#Cc1ccc(CCNc2nccc(-c3cccc(CN4CCNCC4)c3)n2)cc1 has a documented %Inh of 14

In plain terms, Cc1c(Cn2c3ccccc3n3c(=O)cc(N4CCOCC4)nc23)cccc1C(F)(F)F has a documented %Inh of 0

----------
Listed molecules paired with reported %Inh
- System: PIM3
- test settings: concentration: 1 μM, replicates: in singlicate; n = 1
In your response, the unit should come after the numeric value.

In plain terms, O=C(Nc1n[nH]c2nc(-c3cccs3)c(Br)cc12)C1CCCC1 [SB-743341] has a documented %Inh of 0%

---
In plain terms, Cc1c(Cn2c(C)c(C)n3c(=O)cc(N4CCOCC4)nc23)cccc1C(F)(F)F [GSK2328680] has a documented %Inh of 0%

In plain terms, Nc1nccc(-c2c(-c3ccc(F)cc3)ncn2C2CCN(Cc3ccccc3)CC2)n1 [SB-219980] has a documented %Inh of 0%

----------
- Test system: MARK1
- test settings: concentration: 1 μM, replicates: in singlicate; n = 1
Listed compounds paired with reported %Inh
API: value field is a number in %; no unit string.

Please review the entries below; each comes with its answer.
In plain terms, CSc1ccc(-c2nc3n(c2-c2ccncc2)CCC3)cc1 [SKF-105561] has a documented %Inh of 0

In plain terms, COc1cccc(CNC(=O)NC2CCN(c3ccnc(Nc4ccc(F)cc4)n3)C2)c1 (stereo not drawn) [GSK1379723] has a documented %Inh of 0

In plain terms, Cc1ccccc1Cn1ccn2c(=O)cc(N3CCOCC3)nc12 [GSK2269905] has a documented %Inh of 99.2

In plain terms, CS(=O)(=O)CCNCc1nc(-c2ccc3ncnc(Nc4ccc(OCc5ccccc5)c(Cl)c4)c3c2)cs1.Cl [GW582764] has a documented %Inh of 0

In plain terms, NS(=O)(=O)c1cccc(N/C=C2\C(=O)Nc3ccc(S(=O)(=O)Cc4c(Cl)cccc4Cl)cc32)c1 [GSK398099] has a documented %Inh of 0

---
In plain terms, Fc1ccc(-c2nc[nH]c2-c2ccncc2)cc1 [SB-217360] has a documented %Inh of 12

In plain terms, CNc1nc(-c2ccc3c(N)n[nH]c3c2)cc(N2C[C@@H](C(=O)NC3CCCCC3)OC[C@H]2C)n1 [GSK2375584] has a documented %Inh of 10

In plain terms, Cn1cncc1C(=O)NC1CCN(c2ccnc(Nc3ccc(F)cc3)n2)C1 (stereo not drawn) [GSK1379717] has a documented %Inh of 0

In plain terms, Nc1ncnc2occ(-c3ccc4c(c3)CCN4C(=O)Cc3cc(F)ccc3F)c12 [GSK2645446] has a documented %Inh of 0

In plain terms, Cc1c(Cn2c3ccccc3n3c(=O)cc(N4CCOCC4)nc23)cccc1C(F)(F)F [GSK2306394] has a documented %Inh of 0

In plain terms, O=C(Nc1n[nH]c2nc(-c3ccco3)c(Br)cc12)C1CCN(Cc2ccccc2)C1.O=C(O)[C@H](O)[C@@H](O)C(=O)O (stereo not drawn) [SB-742034] has a documented %Inh of 27

In plain terms, CCCCc1nn2ncccc2c1-c1ccnc(NC2CC2)n1 [GW684374] has a documented %Inh of 0

In plain terms, COc1cccc(NC(=O)Nc2ccc(C)c(-c3ccc(C(=O)Nc4ccncc4)cc3)c2)c1 [GSK1398474] has a documented %Inh of 94.1

In plain terms, COc1ccc(-c2coc3ccc(-c4nnc(C)o4)cc23)cc1 has a documented %Inh of 100

In plain terms, Cc1ccc(NC(=O)Nc2ccc(Cl)c(C(F)(F)F)c2)cc1-c1ccc(C(=O)Nc2ccncc2)cc1 [GSK1398470] has a documented %Inh of 0

In plain terms, O=c1cc(N2CCOCC2)nc2n(Cc3ccccc3F)ccn12 [GSK2297428] has a documented %Inh of 100

In plain terms, CC(C)c1ccc(O)cc1Nc1ccnc2ccc(C(F)(F)F)cc12 [GW482059] has a documented %Inh of 0

In plain terms, COc1ccc(Nc2nccc(NCCNC(=O)Nc3cc(C)ccc3C)n2)cc1 [GSK1379899] has a documented %Inh of 0
